tested on: SUDIPGVI (diffuse intrinsic pontine glioma line); experiment: growth inhibition (% activity, log2 RLU normalised to DMSO / staurosporine); higher = more growth inhibition; settings: 33 µM
Known growth inhibition of a selection of molecules
Value expressed in %; do not type the unit.

Some solved cases for reference:
molecule	units	growth inhibition
COc1cc2nc(N(C)CCCNC(=O)C3CCCO3)nc(N)c2cc1OC (stereo unspecified)	%	1.28
CC#CCn1c(N2CCC[C@@H](N)C2)nc2c1c(=O)n(Cc1nc(C)c3ccccc3n1)c(=O)n2C	%	-1.81

INPUT: Dear colleague, please send me the reported growth inhibition for S=c1[nH]cnc2nc[nH]c12 when you can.
OUTPUT: 13.4

INPUT: Dear colleague, please send me the reported growth inhibition for CC(C)(Oc1ccc(Cl)cc1)C(=O)O when you can.
OUTPUT: -0.459

INPUT: Dear colleague, please send me the reported growth inhibition for CC(C)(C)NCC(O)c1ccc(O)c(CO)c1 (stereo unspecified) when you can.
OUTPUT: -4.26

INPUT: Dear colleague, please send me the reported growth inhibition for O=C(OCC(O)CO)c1ccccc1Nc1ccnc2cc(Cl)ccc12 (stereo unspecified) when you can.
OUTPUT: 2.77

INPUT: Dear colleague, please send me the reported growth inhibition for CCOCC(O)COc1ccc(NC(=O)CC[S+](C)C)cc1 (stereo unspecified) when you can.
OUTPUT: -0.872

INPUT: Dear colleague, please send me the reported growth inhibition for Cc1ccc(C(=O)c2ccc(CC(=O)O)n2C)cc1 when you can.
OUTPUT: 1.82

INPUT: Dear colleague, please send me the reported growth inhibition for O=C(Nc1ccccc1)OCC(CN1CCCCC1)OC(=O)Nc1ccccc1 (stereo unspecified) when you can.
OUTPUT: -7.72

INPUT: Dear colleague, please send me the reported growth inhibition for COc1cc2/c(=N/c3ccc(Br)cc3F)nc[nH]c2cc1OCC1CCN(C)CC1 when you can.
OUTPUT: -4.91

INPUT: Dear colleague, please send me the reported growth inhibition for C[C@@H]1C/C=C/C=C/C=C/C=C/[C@H](O[C@@H]2O[C@H](C)[C@@H](O)[C@H](N)[C@@H]2O)C[C@@H]2O[C@](O)(C[C@@H](O)C[C@H]3O[C@@H]3/C=C/C(=O)O1)C[C@H](O)[C@H]2C(=O)O when you can.
OUTPUT: 3.23
